Provide the reported IC50 of each item.
Give the quantity in µM, number only.

The reported IC50 value, Protein kinase C gamma type (Homo sapiens, UniProt P05129), for `CN1CCN(C[C@@H]2CCn3cc(c4ccccc43)C3=C(C(=O)NC3=O)c3cn(c4ccccc34)CCO2)CC1` reads 3.2

The reported IC50 value, Protein kinase C gamma type (Homo sapiens, UniProt P05129), for `O=C1NC(=O)C2=C1c1cn(c3ccccc13)CCO[C@H](CN1CCOCC1)CCn1cc2c2ccccc21` reads 2.5

The reported IC50 value, Protein kinase C gamma type (Homo sapiens, UniProt P05129), for `O=C1NC(=O)C2=C1c1cn(c3ccccc13)CCO[C@H](CO)CCn1cc2c2ccccc21` reads 2

The reported IC50 value, Protein kinase C gamma type (Homo sapiens, UniProt P05129), for `NC[C@@H]1CCn2cc(c3ccccc32)C2=C(C(=O)NC2=O)c2cn(c3ccccc23)CCO1` reads 2.1

Data origin, for the record: ChEMBL document CHEMBL1129363
